B1: Homeobox protein cut-like 1, residues 548 to 629; numbered along this chain, P39880 (parent)
chain: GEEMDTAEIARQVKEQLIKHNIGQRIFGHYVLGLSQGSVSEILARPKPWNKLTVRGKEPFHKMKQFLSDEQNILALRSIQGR

# Variants of: B1
# assay_procedure: abundance fitness (aPCA) (normalised: wild type 0, dead -1); higher = more abundant; growth selection in yeast, the domain comes from the species named
# details: Homo sapiens
The label depends only on abundance fitness: true if it is at least -0.2, false if it is smaller.

| variant_notation | class_name |
| --- | --- |
| Y30D | false |
| P59M | true |
| V31R | false |
| G23W | false |
| Q24E | true |
| E3M | true |
| K19M | false |
| H61F | true |
| K19R | true |
| G1W | true |
| P48Y | false |
| S38Q | true |
| I9R | false |
| A10W | false |
| Q65M | true |
| K47L | true |
| Q24F | true |
| K19G | false |
| S40E | true |
| R55A | true |
| V31W | true |
| L52R | false |
| V54C | true |
| E58Q | true |
| Y30T | true |
| L17V | false |
| L74A | true |
| A75P | false |
| Q65A | true |
| R25L | true |
| K64V | true |
| H20V | false |
| N50K | true |
| G37N | true |
| P48H | true |
| Q24M | true |
| E58I | false |
| F27L | false |
| V31T | false |
| Q71H | true |
| V31G | false |
| K47G | false |
| K62F | false |
| V54A | true |
| G56K | false |
| Q71S | true |
| E3A | true |
| S38E | true |
| R82Y | true |
| W49R | false |
| F27D | false |
| E15V | true |
| V39Y | false |
| L34W | false |
| P46V | false |
| E2Y | true |
| F66C | false |
| L43G | false |
| K64G | false |
| S78H | true |
| S78R | true |
| L67V | false |
| M63V | false |
| S38V | true |
| K64M | true |
| E58C | false |
| S35Y | false |
| G81R | true |
| Q80A | true |
| Q36E | true |
| D69R | false |
| I18H | true |
| I18G | true |
| G81K | true |
| Q24C | true |
| H29L | true |
| Q24Y | true |
| N50T | true |
| R55V | true |
| A44F | true |

Reference for the values: the Human Domainome abundance scans (Beltran et al. 2025)
